B1: tRNA (parent)
chain: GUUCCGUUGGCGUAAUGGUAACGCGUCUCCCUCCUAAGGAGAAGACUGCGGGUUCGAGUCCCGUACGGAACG

Variants of: B1
Assay: yeast fitness relative to wild type (ratio to wild type); higher = fitter; tRNA-Arg(CCU), competitive growth, 37 C, YPD
This sample holds only a part of the variants without activity.
MEASURE: yeast fitness
# output: bare number, no unit

Guide cases for yeast fitness, answers given:
>>> val("GUUCAGUUGGCGUAAUGGUAACGUGUCUCCCUCCCAAGGAGAAGACUGCGGGUUCGAGUCCCGUAUGGAACG [C5A C24U U35C C66U]")
0.549
>>> val("GUUCCGUUGGCGUAGUGGUAACGUGUCUUGCUCCGAAGGAGAAGACUGCGGGUUCGAGUCCCGUACGGAACG [A15G C24U C29U C30G U35G]")
0.737
>>> val("GUUCCGUUGGCGUCAUGGUAACGCGUCUCCUUCCUUAGGAGAAGACUGCGGGUUCGAGUCCCGUACGGAACG [A14C C31U A36U]")
0.631

# variant GUUCCGUUCGCGUAAUGGUAACGCGUCUCCCUCCUAAGGAGAAGACUGCGGGUUCGAGUCCCGUACGCAACG [G9C G68C] ; its yeast fitness = 0.777

Value of measured yeast fitness for the entry GUUCCGUUGACGUAAUGGAAACGCGUCUCCCUCCUAAGGCGCAGACUGCGGGUUCGAGUCCCGUACGCAACG [G10A U19A A40C A42C G68C] : 0.582

GUUCCGUUAGCGUAAUGGUAACGCGUCUCCCUCCUAAGGAGAAGACUGCGGGUUCGAGUCCCGUACGGAGCG [G9A A70G] has a reported yeast fitness of 1.06

yeast fitness recorded for this variant, GUUCCGUUGGCGUAAUGGUAACGCGUCUCCUUCCUAAGGAGAAGACUGCAGGUUCGAGUCCCGUACAGAACG [C31U G50A G67A] , is 0.63

The recorded yeast fitness for entry GUCCCGUUGGCGUAAUGGUAACGCGUCUCCCUCCUGAGGAGAAGACUGCGGGUUCGAGUCCCGUACGGAACG [U3C A36G] equals 0.91

variant GUUCCGUUGGCGUAAUGGUAACGCGUCUCCCUCCUAAGGAGAAGUCUGCGGGUUCCAGUCCCGUACGGAACG [A45U G56C] , yeast fitness observed: 0.714

Record GUUCCGUUGGCAUAAUGGUAACGCGUCUCCCUCCUAAGGAAAAGACUGCGGGUUCGAGUGCCGUGCGGAACG [G12A G41A C60G A65G] , field yeast fitness: 0.559

The value of yeast fitness measured for the variant GCUCCGUUGGCGUAAUGAUAACGUGUCUCCCUCCUAAGGAGAAGACUGCGGGUUCGAGUCCCGUACGGAACG [U2C G18A C24U] turned out to be 0.529

# variant GACUCGUUGGCGUAAUGGUAACGCGUCUCCCUCCUAAGGAGAAGACUGCGGGUUCGAGUCACGUACCGAACG [U2A U3C C4U C61A G67C] ; its yeast fitness = 0.59

Measured yeast fitness, GUACCGUUGGCGUAAUGGUGAUGCGUCUCCCUCCUAAGGAGAAGACUGCGGGUUCGAGUCCCGUACGGAACG [U3A A20G C22U] : 0.584

// GUUCCGUUGGCGUAAUGGGAACGGGUCCCCCUCCUAAGGAGAAGACUGCGGGUUCGAGUCCCGUACGGAACG [U19G C24G U28C] : yeast fitness value = 0.681

Recorded result, GUUCCGUUGGCGUACUGGUAACGCGUCUCCCUCCUAAGGAGAAGACUGCGGGUUCGAGUCCCAUACGGAACG [A15C G63A] , yeast fitness: 0.61

In plain terms, GUACCGUUGGCGUAAUGGUAACGCGUCUCCGUCCUAAGGAGAAGACUGCGGGUUCGAGUCCCGUACUGAACG [U3A C31G G67U] has a documented yeast fitness of 0.542

Entry under test: GUUCCGUUGGCGUAAUGAUAACGCGUCUUCCUCCUAAGGAGAAGACUGCGGGUUCGAGUCCCGUACGGAACG [G18A C29U] . Its yeast fitness was 0.813

Lab note: GUUCCGUUGGCGUAAUGGUAACGCGUCUCCCUCCUAAGGAGAAGUCUGCGGGUUCGAGGCCCGUACGGAACG [A45U U59G] gave yeast fitness of 0.66

Attribution: the RNAGym collection of RNA variant scans (doi:10.1126/science.aae0568)
